- Assay Remarks: Clearance in Beagle dog liver microsomes
- Type: ADME, Canis lupus familiaris, Microsome

Mol Smiles: CC(=O)Nc1nc2ccc(-c3cnc(Cl)c(NS(=O)(=O)c4ccc(F)cc4)c3)cc2s1
microsomal CLint: < 26 µL/min/mg

----------
Measured pIC50 by item
- Tested System: Serine/threonine-protein kinase mTOR (Homo sapiens, UniProt P42345)
- Assay Remarks: Inhibition of recombinant N-terminal GST-tagged mTOR-mediated 4E-BP1 phosphorylation after 60 mins by TR-FRET assay
pIC50: −log10 of the molar value.
Parameter Measured: pIC50

Mol Smiles: Nc1nc2ccc(-c3cnc(Cl)c(NS(=O)(=O)c4ccc(F)cc4)c3)cc2s1
Recorded Measurement: 7.62
//
Mol Smiles: O=S(=O)(Nc1cc(-c2ccc3sncc3c2)cnc1Cl)c1ccc(F)cc1
Recorded Measurement: 6.53
//
Mol Smiles: Nc1nc2ccc(-c3cnc(Cl)c(NS(=O)(=O)c4ccc(F)cc4)c3)cc2[nH]1
Recorded Measurement: 6.37
//
Mol Smiles: CC(=O)Nc1cn2nc(-c3cnc(Cl)c(NS(=O)(=O)c4ccc(F)cc4)c3)ccc2n1
Recorded Measurement: 9.40
//
Mol Smiles: Nc1cn2cc(-c3cnc(Cl)c(NS(=O)(=O)c4ccc(F)cc4)c3)ccc2n1
Recorded Measurement: 7.70
//
Mol Smiles: O=S(=O)(Nc1cc(-c2ccc3ncoc3c2)cnc1Cl)c1ccc(F)cc1
Recorded Measurement: 7.12
